pIC50: −log10 of the molar value.
Here's a roundup of pIC50 values tested on Tyrosine-protein kinase Lck (Homo sapiens, UniProt P06239), taken from various published works.
Sequence (P06239 whole entry): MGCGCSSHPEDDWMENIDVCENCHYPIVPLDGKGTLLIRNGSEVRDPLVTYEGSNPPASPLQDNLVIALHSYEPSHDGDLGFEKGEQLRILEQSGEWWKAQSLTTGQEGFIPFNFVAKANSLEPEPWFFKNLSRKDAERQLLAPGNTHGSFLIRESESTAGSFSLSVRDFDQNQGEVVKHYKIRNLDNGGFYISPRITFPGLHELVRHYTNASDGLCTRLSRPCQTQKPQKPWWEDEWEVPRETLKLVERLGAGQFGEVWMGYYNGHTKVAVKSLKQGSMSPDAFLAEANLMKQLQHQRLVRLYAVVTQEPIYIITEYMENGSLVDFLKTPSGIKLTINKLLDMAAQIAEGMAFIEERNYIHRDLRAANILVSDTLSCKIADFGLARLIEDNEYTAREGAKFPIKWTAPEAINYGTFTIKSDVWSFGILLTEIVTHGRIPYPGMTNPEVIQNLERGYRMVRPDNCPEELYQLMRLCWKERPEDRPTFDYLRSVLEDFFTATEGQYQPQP
ATTRIBUTE_MEASURED: pIC50

1. Nc1nccn2c([C@@H]3CC[C@H]4CCC(=O)N4C3)nc(-c3ccc(C(=O)Nc4cc(C(F)(F)F)ccn4)cc3)c12
8.23
2. Cc1ccn(-c2ccccc2)c(=O)c1-c1ccc2nc(N)ncc2c1
5.77
3. Fc1cccc(Nc2nc3ccccc3n3cncc23)c1
5.88
4. COc1cc(-c2csc3c(/C=C/CN4CCN(c5ccccc5)CC4)cnc(N)c23)ccc1NC(=O)c1cc2ccccc2n1C
5.53
5. COc1cc(/C=N/c2cnc(Nc3ccc(N4CCOCC4)cc3)nc2Oc2ccc(C(F)(F)F)cc2)cc(OC)c1
4.92
6. COc1cc(-c2csc3c(NC(=O)CCN4CCCC4)cnc(N)c23)ccc1NC(=O)c1cc2ccccc2n1C
4.68
7. CN(C(=O)Nc1c(Cl)cccc1Cl)c1cc(Nc2ccc(F)cc2)ncn1
5.41
8. CC(C)(C)NC(=O)c1cc(Cl)nc(C#Cc2ccc3c4c(oc3c2)C(C)(C)c2cc(NS(C)(=O)=O)ccc2C4=O)c1
6.74
9. CC1(C)c2cc(OCCN3CCOCC3)ccc2C(=O)c2c1oc1cc(C#Cc3cc(C(=O)NC4CC4)ccn3)ccc21
6.74
10. N=c1oc2ccc(O)cc2cc1C(N)=O
4.00
11. CC(C)(C)NC(=O)c1cc(C#N)nc(C#Cc2ccc3c4c(oc3c2)C(C)(C)c2cc(NS(C)(=O)=O)ccc2C4=O)c1
7.24
12. Cc1ccc(NC(=O)c2cccc(C(F)(F)F)c2)cc1Nc1nc2ccccc2n1-c1cc(Cl)ncn1
5.93
13. C[N+](C)(C)[C@H](CCOc1c(Cl)cc(Br)cc1Cl)C(=O)[O-]
4.93
14. COc1ccc2c(nc(Nc3c(C)cccc3Cl)c3cnc(C)n32)c1OC
8.13
15. c1ccc2c(c1)nc(C1CCCCC1)c1cncn12
5.50
16. O=C(c1ccc(Nc2nc(C3CC3)cn3c(-c4cn[nH]c4)cnc23)cc1Cl)N1CCNCC1
5.74
